Where do the numbers come from? From patent US20250325718A1.

Biological target: T1, Kallikrein related peptidase 2 (hK2), soluble human protein (human, UniProt P20151 19-261)
T1 construct: the stated signal peptide (residues 1-18) is left out, the pro-peptide (19-24) is kept; also called KLK2; kallikrein-2
T1 sequence (P20151 19-261): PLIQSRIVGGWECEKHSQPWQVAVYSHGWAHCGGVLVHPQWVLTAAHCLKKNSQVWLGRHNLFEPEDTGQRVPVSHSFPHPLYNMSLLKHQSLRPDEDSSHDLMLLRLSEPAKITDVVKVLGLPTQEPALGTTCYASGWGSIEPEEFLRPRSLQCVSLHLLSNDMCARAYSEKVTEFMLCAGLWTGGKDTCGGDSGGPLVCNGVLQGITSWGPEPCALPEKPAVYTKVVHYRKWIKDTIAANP
Assay: SPR, antibody captured on anti-Fc chip, soluble hK2 injected, 1:1 Langmuir fit
pKd: −log10 of the molar value.

# Binder, pKd
rows = [
    ("KL2B53 (Fab) (Fab, V domains shown) VH: EVQLVESGGGVVQPGRSLRLSCVASGFTFSSYDIHWVRQAPGKGLEWVAIISYDGSKKDYTDSVKGRFTISRDNSKNTLYLQMDSLRVEDSAVYSCARESGWSHYYYYGMDVWGQGTMVTVSS VL: DIVMTQSPSSLSASVGDRVTITCRASQDISNYLAWYQQKPGKVPKFLIYAASTLHSGVPSRFSGSGSGTDFTLTISSLQPEDVATYYCQKYNSAPYTFGQGTRLEIK", 10.10),
]
